measurement-protocol: Mycobacterium tuberculosis growth inhibition, primary screen (AID 1259343)
conditions-used: at 10 µM, active compounds read high
Out of some 6,200 compounds screened, about 2,900 (47%) were called active. The set was probably picked from earlier hits. This is one part of the list.
For each of the molecules below, state its inhibition.
Numbers only, in %.

Below are worked cases with known answers.
molecule="Cn1c(SC2CCCc3ccccc32)nnc1-c1ccco1 (centres undefined)" test_result=27.9
molecule=CCn1c(SCC(=O)Nc2ccc(I)cc2)nnc1-c1ccco1 test_result=10.3
molecule="CC1=NOC(Cc2ccccc2)C(=O)N1Cc1ccc(C)cc1 (centres undefined)" test_result=30.2
molecule=O=C1CC(NC(=O)C(F)(F)F)=NN1c1ccccc1 test_result=70.9
molecule="COc1ccc(N2C(=O)C3N=NN(Cc4ccccc4C)C3C2=O)cc1Cl (centres undefined)" test_result=-10.3

# per-item lookup of inhibition; items listed below
1. O=C(c1ccc(Cl)cc1Cl)N1CCCC(OCc2ccccc2Cl)C1 (centres undefined)
2. N#Cc1ccc(S(=O)(=O)N2CCC(Cc3ccc(C(F)(F)F)cc3)CC2)cc1

Result:
20.5
71.7

----------
measurement-protocol: Mycobacterium tuberculosis growth inhibition, primary screen (AID 1259343)
conditions-used: at 10 µM
Screen size: about 6,200 compounds; about 2,900 (47%) were called active. Rule as the data show it: active = inhibition above about 50%; inactive = the rest. So high a share suggests a set chosen from earlier hits. The list shows a part of the results.
API: response.call in active, inactive

Known results for compounds:
compound=O=C(CC1CCCC1)N1CC=C(c2ccc(O)cc2)CC1 assigned_class=inactive
compound=Fc1ccc(Nc2nc3cc(Cl)ccc3o2)cc1Cl assigned_class=inactive
compound=C=CCSc1nnc2c3ccccc3n(CC=C)c2n1 assigned_class=inactive

Task: Hello, I am checking results. What call was entered for "CSc1cccc(NC(=O)Cc2csc(N3CCCC3=O)n2)c1" ?
Result: active

Task: Hello, I am checking results. What call was entered for "O=C(NCCc1cccc(C(F)(F)F)c1)c1ccc(CSc2ncn[nH]2)o1" ?
Result: inactive

Task: Hello, I am checking results. What call was entered for CC1CCC(N(C)C(=O)NCc2ncc(-c3ccccc3)o2)CC1 (stereo unspecified) ?
Result: active

----------
measurement-protocol: Mycobacterium tuberculosis growth inhibition, primary screen (AID 1259343)
conditions-used: at 10 µM
In all, about 6,200 compounds went through this assay and about 2,900 (47%) were called active. Rule as the data show it: active = inhibition above about 50%; inactive = the rest. The set was probably picked from earlier hits. This is one part of the list.
API: response.call in true (1) (active), false (0) (inactive)

molecule=Cc1ccn2cc(C(=O)Nc3nc4ccccc4s3)nc2c1 assigned_class="true (1)"
molecule="CN(Cc1nc(-c2ccc(C(F)(F)F)cc2)no1)CC(O)c1ccccc1 (centres undefined)" assigned_class="true (1)"
molecule=CCc1cc(=O)[nH]c(-n2nc(C)cc2NC(=O)c2cc(Cl)ccc2OC)n1 assigned_class="true (1)"
molecule=O=C(Nc1ncc(Cl)s1)c1ccc(Cl)cn1 assigned_class="true (1)"
molecule=CC(=NNC(=O)NC1CCCCC1)c1ccco1 assigned_class="false (0)"

Task: Hello, I am checking results. What call was entered for O=C1CC(=O)N2C(c3ccccc3)=CSC2(OCCS)N1 (centres undefined) ?
Result: false (0)

Task: Hello, I am checking results. What call was entered for "CC(C)CCNC(=O)c1ncc(Cl)c(Cl)c1Cl" ?
Result: true (1)

Task: Hello, I am checking results. What call was entered for "CC(C)c1ccc(-c2noc(CN(C)c3ccccc3)n2)cc1" ?
Result: true (1)

Task: Hello, I am checking results. What call was entered for "Cc1ccc(-n2c(SCC(=O)N3CCNC3=O)nc3sc4c(c3c2=O)CCC4)c(C)c1" ?
Result: true (1)

Task: Hello, I am checking results. What call was entered for "CC(=O)CSc1nc2sc(C)c(C)c2c(=O)n1C1CCCCC1" ?
Result: false (0)

Task: Hello, I am checking results. What call was entered for "O=C(NC1CCCC1)c1occc1COc1ccccc1" ?
Result: true (1)

Task: Hello, I am checking results. What call was entered for "O=S(=O)(Nc1ccc(OC(F)F)c(Cl)c1)c1ccc(F)c(Cl)c1" ?
Result: false (0)

Task: Hello, I am checking results. What call was entered for CCC(C(=O)c1ccc2ncccc2c1)c1ccccc1 (centres undefined) ?
Result: true (1)

Task: Hello, I am checking results. What call was entered for "O=C(CCS(=O)(=O)c1ccc(Cl)cc1)NCCC1=CCCCC1" ?
Result: true (1)

Task: Hello, I am checking results. What call was entered for Cc1cc(OCC(O)CN(Cc2ccccc2)C(C)(C)C)ccc1[N+](=O)[O-] (centres undefined) ?
Result: false (0)

Task: Hello, I am checking results. What call was entered for "CC(C)c1nccc(-c2nccn2CC2(O)CCN(C)CC2)n1" ?
Result: false (0)

Task: Hello, I am checking results. What call was entered for "O=S(=O)(Nc1ccc(F)c(Cl)c1)c1ccc(Br)s1" ?
Result: false (0)

Task: Hello, I am checking results. What call was entered for "Cc1noc(-c2ccc(C(=O)NCCC(C)C)cc2)n1" ?
Result: false (0)

Task: Hello, I am checking results. What call was entered for COc1cc(C(=O)NC2CCOc3ccccc32)cc2c1OCCO2 (centres undefined) ?
Result: false (0)

Task: Hello, I am checking results. What call was entered for CC1=C(C(=O)OCCOc2ccccc2)C(c2ccccc2[N+](=O)[O-])NC(=O)N1C (centres undefined) ?
Result: false (0)

Task: Hello, I am checking results. What call was entered for CN(CC1Cc2ccccc2O1)C(=O)c1cc(COc2ccc3ncccc3c2)on1 (centres undefined) ?
Result: false (0)

Task: Hello, I am checking results. What call was entered for "Clc1ccc(-c2noc(COc3ccc4c(c3)OCO4)n2)cc1" ?
Result: false (0)

Task: Hello, I am checking results. What call was entered for "Cc1nc(-n2nc(-c3cccs3)cc2N)[nH]c(=O)c1C" ?
Result: true (1)
